FYI, the data here is from paper PMC10397247.

- Target entity: T1, 4H3427-bH
- T1 chain: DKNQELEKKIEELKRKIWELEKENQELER
- Procedure text: two-hybrid library CCNG1;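 also: natural log of median RNA to DNA barcode read ratio; higher means stronger binding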
Threshold-based label: interaction score under 0.4 gives 1, interaction score not under 0.4 gives -1.

| Binder | Category |
| --- | --- |
| DKIQELKKEIEELEREIWELKKKNQELKR [4H2576-bH] | -1 |
| DEIQELEKKIEELKREIWELKKENQELER [4H331-bH] | -1 |
| DKIQELKKEIEELKREIWELEKENQELER [4H2627-bH] | -1 |
| DKNQELEKKIEELKRKIWELEKENQELER [4H3427-bH] | -1 |
| DENQELEKEIEELERKNWELKKEIQELER [4H1081-bH] | 1 |
| DEIQELEKKIEELKRENWELEKEIQELKR [4H338-bH] | 1 |
| DENQELEKKNEELERKIWELEKKIQELKR [4H1446-bH] | -1 |
| DKIQELKKEIEELERKNWELKKEIQELKR [4H2618-bH] | -1 |
| DENQELKKKIEELERKIWELEKKNQELER [4H1831-bH] | -1 |
| DEIQELEKEIEELKRKIWELKKKNQELKR [4H112-bH] | -1 |
| DEIQELEKENEELERKIWELKKEIQELKR [4H170-bH] | -1 |
| DKIQELKKENEELEREIWELKKKIQELKR [4H2702-bH] | -1 |
| DKNQELEKEIEELERKIWELEKKNQELKR [4H3112-bH] | -1 |
| DENQELKKKIEELERKNWELEKKIQELER [4H1845-bH] | 1 |
| DKNQELEKEIEELKRKNWELEKEIQELER [4H3185-bH] | 1 |
| DENQELEKENEELKRKIWELKKEIQELER [4H1257-bH] | 1 |
| DEIQELEKEIEELKRKNWELEKKIQELKR [4H118-bH] | -1 |
| DKIQELEKKNEELEREIWELKKEIQELKR [4H2442-bH] | 1 |
| DKIQELKKENEELERKIWELKKEIQELER [4H2729-bH] | 1 |
